- Tested on: Escherichia coli
- assay.details: Antimicrobial activity against Escherichia coli ATCC 35218 after 36 hrs under aerobic condition by microdilution method
- Assay type: functional
- condition: ATCC 35218, 36 h
measurement.name: MIC (µg/mL)
A number alone suffices; assume µg/mL.

Req: Dear colleague, I am looking for the recorded MIC of the following compound: COc1c(-c2ccc(O)c(O)c2)oc2cc(O)cc(O)c2c1=O
Resp: 50

###

- Test system: Escherichia coli
- assay.details: Antimicrobial activity against Escherichia coli ATCC 35218 after 36 hrs under aerobic condition by microdilution method
- Format: functional
- condition: ATCC 35218, 36 h
// reported MIC per item

Below, each entry is followed by its recorded MIC result.
>  <smiles>
C=C1C(=O)O[C@H]2CC(=C)[C@@H](O)CC/C(C)=C/[C@@H](O)[C@H]12

>  <MIC>
50 µg/mL

$$$$
>  <smiles>
CN[C@@H]1[C@H](O[C@H]2[C@H](O[C@H]3[C@H](O)[C@@H](O)[C@H](N=C(N)N)[C@@H](O)[C@@H]3N=C(N)N)O[C@@H](C)[C@]2(O)C=O)O[C@@H](CO)[C@H](O)[C@H]1O

>  <MIC>
200 µg/mL

$$$$

Proceeding to the next molecule to report its MIC.
Req: Dear colleague, I am looking for the recorded MIC of the following molecule: C=C1C(=O)O[C@H]2C[C@@]3(C)[C@H](O)CCC(=C)[C@@H]3[C@@H](O)[C@H]12
Resp: 50 µg/mL
